- protocol-description: refractive index (Na D-line) (dimensionless)
- test-parameters: 313.15 K; 101.33 kPa; Liquid; Standard Abbe refractometry
// refractive index lookup, one value per entry
// return a plain number; no unit text

CCOCCOCCO : 1.41887
CCOCCO : 1.4018

Query block: Looking for the measured refractive index of CCOCCOCCOCC , can you help?
Result block: 1.40296

Query block: COCCOCCOCCOCCOC , same question.
Result block: 1.42373

Query block: Then what about the molecule OCCO ?
Result block: 1.42562

* * *

- test-parameters: 373.15 K; 101.33 kPa; Liquid; Concentric cylinders viscometry
Numbers after ± are expanded uncertainties.
property-measured: viscosity
Please answer using a numeric value trailed by its unit.

The following compounds have reported results that may help.
COCCOCCO : 0.877 ± 0.036 mPa·s
COCCOCCOC : 0.441 ± 0.019 mPa·s
COCCOCCOCCOC : 0.65 ± 0.027 mPa·s

Attention now turns to another entry.
Query block: Which viscosity value is on record for OCCO ?
Result block: 2.102 ± 0.085 mPa·s

* * *

- test-parameters: 313.15 K; 101.33 kPa; Liquid; Concentric cylinders viscometry
Define the label as yes (1) when viscosity is strictly less than 2 mPa·s and as no (0) in all remaining cases.

COCCOCCOCCOCCOC [2,5,8,11,14-pentaoxapentadecane] : no (0)

Query block: is_below(viscosity, 2 mPa·s) for COCCOCCOCCOC [2,5,8,11-tetraoxadodecane] ?
Result block: yes (1)

Query block: Record: OCCOCCO [diethylene glycol]
Result block: no (0)

Query block: What about CCOCCOCCOCC [diethylene glycol diethyl ether] ?
Result block: yes (1)

Query block: Check OCCO [1,2-ethanediol] too.
Result block: no (0)

Query block: For CCOCCO [2-ethoxyethan-1-ol] then?
Result block: yes (1)

* * *

- test-parameters: 283.15 K; 101.33 kPa; Liquid; Vibrating tube method
property-measured: mass density (kg/m3)
Answer format: numeric, kg/m3 implied, no suffix.

COCCOCCOCCOCCOC [2,5,8,11,14-pentaoxapentadecane] : 1020.7
OCCOCCOCCO [triethylene glycol] : 1131.3
OCCO [1,2-ethanediol] : 1120.2
COCCOCCOCCOC [2,5,8,11-tetraoxadodecane] : 994.1
CCOCCOCCOCC [diethylene glycol diethyl ether] : 917

Next compound, mass density to be filled in.
Query block: Which mass density is reported for this compound? CCOCCO [2-ethoxyethan-1-ol]
Result block: 941.2

* * *

- test-parameters: 333.15 K; 101.33 kPa; Liquid; Concentric cylinders viscometry
Numbers after ± are expanded uncertainties.
# viscosity annotations

The examples below pair each entry with its known result.
COCCOCCOC : 0.633 ± 0.026 mPa·s
OCCO : 5.197 ± 0.21 mPa·s

Query block: What does the data say about its viscosity? Entry: CCOCCOCCOCC
Result block: 0.744 ± 0.031 mPa·s

Query block: One more compound: OCCOCCOCCO
Result block: 9.528 ± 0.38 mPa·s

Query block: Now consider CCOCCOCCO and answer again.
Result block: 1.718 ± 0.071 mPa·s

* * *

- test-parameters: 368.15 K; 101.33 kPa; Liquid; Concentric cylinders viscometry
property-measured: viscosity (mPa·s)
Your answer should be a plain number; it is taken to be in mPa·s.

CCOCCOCCOCC : 0.498
COCCOCCOCCOC : 0.715
OCCOCCO : 3.169

Query block: Record request: viscosity value, item OCCO
Result block: 2.306

Query block: Same lookup for COCCOCCO , please.
Result block: 0.95
